Measured values drawn from PubChem BioAssay (NCATS) for this set.

Assay: Cellular viability qHTS for adrenocortical cancer (ACC) cell line SW-13 (AID 1963989); also: potency is read from the fitted curve at half-maximal effect; nearly all actives have a fitted effect of over 65% in size
Conditions: SW-13 ACC cells viability, CellTiter-Glo, 48 h
Records with an inconclusive call do not appear. Activity calls are given as the source filed them. Calls follow the shape of the dose curve; as a rule, active = well fitted cell-killing curve with a large enough effect; inconclusive = small, poorly fitted or top-dose-only effect; inactive = flat fitted curve, though single readings scatter.
Could you please report measured Potency for the items listed next?

Solved entries:
| compound | Potency |
| --- | --- |
| CCN(CC)c1ccc(C(=C2C=CC(=[N+](CC)CC)C=C2)c2cc(S(=O)(=O)O)ccc2S(=O)(=O)[O-])cc1 | 8.2 µM (active) |
| O=c1cc(CN2CCOCC2)occ1OCCCCCSc1ccnc2cc(C(F)(F)F)ccc12 | 15.8 µM (active) |
| Clc1ccc(C(Cn2ccnc2)OCc2ccc(Sc3ccccc3)cc2)c(Cl)c1 (centres undefined) | 31.6 µM (active) |

Okay, next one:
q: Using the record for CO[C@H]1/C=C/O[C@@]2(C)Oc3c(C)c(O)c4c(O)c(c5c(nc6cc(C)ccn65)c4c3C2=O)NC(=O)/C(C)=C\C=C\[C@H](C)[C@H](O)[C@@H](C)[C@@H](O)[C@@H](C)[C@H](OC(C)=O)[C@@H]1C , state its measured Potency.
a: 25.1 µM (active)
